# ASSAY_TARGET: recombinant soluble homotrimeric HA of A/swine/Ontario/01911-2/99 (H4N6) (Influenza A virus A/Swine/Ontario/01911-2/99 (H4N6))
# ASSAY_REMARKS: HA microarray, BCC supernatant
# CONDITION_NOTES: remark: other sources report otherwise
Consider the following binders; for each one, report its Trimeric HA Binding: RLU.
Numbers only, in RLU.

| BINDER | VALUE_MEASURED |
| --- | --- |
| TCN-537 (3194_D21) (antibody, V domains shown) VH: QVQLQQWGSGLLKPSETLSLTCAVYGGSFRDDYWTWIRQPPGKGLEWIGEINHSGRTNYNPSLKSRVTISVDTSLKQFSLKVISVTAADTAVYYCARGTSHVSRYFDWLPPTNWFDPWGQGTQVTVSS VL: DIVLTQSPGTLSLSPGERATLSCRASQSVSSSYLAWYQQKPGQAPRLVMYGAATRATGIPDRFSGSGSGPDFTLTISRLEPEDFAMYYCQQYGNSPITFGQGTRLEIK | 19 |
| TCN-550 (5096_F06) (antibody, V domains shown) VH: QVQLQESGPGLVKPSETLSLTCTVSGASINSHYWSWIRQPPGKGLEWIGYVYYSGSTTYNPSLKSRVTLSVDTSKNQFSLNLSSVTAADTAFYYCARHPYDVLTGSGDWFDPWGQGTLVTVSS VL: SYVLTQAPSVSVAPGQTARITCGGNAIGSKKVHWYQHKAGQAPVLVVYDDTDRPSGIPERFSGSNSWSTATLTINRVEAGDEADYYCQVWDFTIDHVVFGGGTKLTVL | 195 |
| TCN-540 (5060_F05) (antibody, V domains shown) VH: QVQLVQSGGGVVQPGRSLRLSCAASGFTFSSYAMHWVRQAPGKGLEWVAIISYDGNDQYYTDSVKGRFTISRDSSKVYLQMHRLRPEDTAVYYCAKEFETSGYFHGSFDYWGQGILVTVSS VL: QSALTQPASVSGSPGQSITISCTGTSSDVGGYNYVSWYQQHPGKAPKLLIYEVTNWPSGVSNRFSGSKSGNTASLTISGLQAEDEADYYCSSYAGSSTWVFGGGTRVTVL | 178 |
| TCN-536 (5095_N01) (antibody, V domains shown) VH: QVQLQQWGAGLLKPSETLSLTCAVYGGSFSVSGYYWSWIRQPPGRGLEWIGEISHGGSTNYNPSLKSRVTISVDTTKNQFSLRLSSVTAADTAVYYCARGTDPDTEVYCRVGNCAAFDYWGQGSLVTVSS VL: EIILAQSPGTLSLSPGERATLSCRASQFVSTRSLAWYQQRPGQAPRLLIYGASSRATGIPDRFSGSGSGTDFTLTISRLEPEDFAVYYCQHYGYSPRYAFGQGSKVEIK | 79 |
| TCN-544 (5082_A19) (antibody, V domains shown) VH: QVQLQESGPGLVKPSETLSLTCTVSRGSIGHYFWSWIRQPPGKGLEWIGYISYSGSTKYNPSLRSRVTISVDTSKNQFSLNLNSVTATDTALYYCAREDYDILTGAGPGMEVWGQGTTVTVSS VL: QSMLTQPPSASGTPGQRVTISCSGSSSNIGSNTVNWFKHLPGTAPKLLIYRNDLRPSGVPDRFSGSKSGTSASLAISGLQSEDEADYYCATWDDSLNGFYVFGTGTKVTVL | 316 |

As a next step, examine the binder that follows.
Q. Bench note: what Trimeric HA Binding: RLU did TCN-530 (5248_H10a) (antibody, V domains shown) VH: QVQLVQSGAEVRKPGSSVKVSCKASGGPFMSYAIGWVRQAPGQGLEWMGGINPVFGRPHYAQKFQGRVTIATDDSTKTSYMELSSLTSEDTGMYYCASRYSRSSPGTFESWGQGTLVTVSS VL: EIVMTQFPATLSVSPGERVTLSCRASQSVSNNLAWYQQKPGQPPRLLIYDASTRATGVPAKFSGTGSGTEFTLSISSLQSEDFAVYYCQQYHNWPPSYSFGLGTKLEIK show?
A. 2740
